target: T1, HDM2-YFP fusion protein (p53-binding domain of human HDM2, residues 1-109, C-terminally fused to Yellow … (human, UniProt Q00987 1-109)); test: SPR inhibition assay: inhibitor added to soluble HDM2-YFP, binding to immobilized biotin-SGSG-p53(15-29) is inhibited
T1 construct: range 1-109; Expressed in E. coli BL21(DE3) from pET22-HDM2-YFP-His; also called HMD2; HDM2-YFP-His; not shown: Yellow Fluorescent Protein (YFP); C-terminal His tag
T1 sequence (Q00987 1-109): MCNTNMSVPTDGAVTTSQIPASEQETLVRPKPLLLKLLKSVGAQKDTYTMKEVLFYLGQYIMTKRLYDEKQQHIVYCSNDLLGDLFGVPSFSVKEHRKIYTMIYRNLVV
Bridges are numbered along the chain shown (N, C = ends). Where no end group is shown, it is not given here. [ ]: non-standard residue; d: D form. SP8 = 3-amino-N-(3-(aminooxy)propyl)-4-(mercaptomethyl)benzamide, macrocycle-forming linker reagent; mAcF = meta-acetyl-L-phenylalanine, its ketone forms an oxime with the linker; pAcF = para-acetyl-L-phenylalanine, its ketone forms an oxime with the linker; Trp(6-Cl) = N[C@@H](Cc1c[nH]c2cc(Cl)ccc12)C(=O)O; Phe(4-Ac) = CC(=O)c1ccc(C[C@H](N)C(=O)O)cc1; SP6 = not defined here; SP9 = not defined here
Value type: IC50 (nM)
Record the value in nM, omitting the unit from your answer.

These recorded examples may help you get a feel for the data.
Binder	Quantity unit	Observed result
Ac-G[pAcF]SFAEYWNLLA (linker 2-C via SP8; also: linker thiol capped with iodoacetamide) [P12]	nM	145
Ac-[pAcF]SFAEY[Trp(6-Cl)]ALLA (linker 1-C via SP9; reading uncertain; also: linker thiol capped with iodoacetamide, also called Ac-(pAcF)SFAEY(6ClW)ALLA, SP9-linked macrocycle) [P17]	nM	305
Ac-[mAcF]SFAEY[Trp(6-Cl)]ALLA (linker 1-C via SP8; also: linker thiol capped with iodoacetamide, also called Ac-(mAcF)SFAEY(6ClW)ALLA, SP8-linked macrocycle) [P16]	nM	105
Ac-[Phe(4-Ac)]SFAEY[Trp(6-Cl)]ALLA-NH2 (SMILES CC(=O)N[C@@H](Cc1ccc(C(C)=O)cc1)C(=O)N[C@@H](CO)C(=O)N[C@@H](Cc1ccccc1)C(=O)N[C@@H](C)C(=O)N[C@@H](CCC(=O)O)C(=O)N[C@@H](Cc1ccc(O)cc1)C(=O)N[C@@H](Cc1c[nH]c2cc(Cl)ccc12)C(=O)N[C@@H](C)C(=O)N[C@@H](CC(C)C)C(=O)N[C@@H](CC(C)C)C(=O)N[C@@H](C)C(N)=O, also called Ac-(pAcF)SFAEY(6ClW)ALLA-NH2) [P11]	nM	30

Request: Recorded IC50 of GTSFA[Phe(4-Ac)]YWNLLA (linker 6-C via SP6; reading uncertain; also: linker thiol capped with iodoacetamide) [p53 macrocyclic peptidomimetic P3 (i/i+6(CO)-linked, SP6-based linker)] , please.
Result: 870

Request: Follow-up entry: Ac-[mAcF]SFAEYWNLLA (linker 1-C via SP8; also: linker thiol capped with iodoacetamide) [P14]
Result: 255

Request: Follow-up entry: Ac-[pAcF]SFAEYWNLLA (linker 1-C via SP8; also: linker thiol capped with iodoacetamide) [P13]
Result: 135
